The reported measurements were obtained from patent US11111217B2.

- ASSAY NOTES: Microsome stability assay, mouse liver microsomes
- Type: in vitro ADME
- CONDITION: pH 7.4, 1 μM test compound, NADPH 1 mM, 37° C., 0-40 mins, read-out: MLM t1/2
PARAMETER: half-life at 1 μM (min)

COMPOUND | U | RESULT NUMBER
CC(C)(C)c1cccc(-c2nc3ccccc3[nH]2)c1 [Example 58] | min | 4.7
CC(C)(C)c1ccc(-c2cn3ccccc3n2)cc1 [Example 5] | min | 8.4

[P] Nc1ccc(-c2nc3ccccc3[nH]2)cc1 [Example 76, 2-(4-Aminophenyl)-1H-benzo[d]imidazole]
[Q] COc1ccc(-c2nc3ccccc3[nH]2)cc1 [Example 21]
[R] [2H]c1cc([2H])c2nc(-c3ccc(C(C)(C)C)cc3)[nH]c2c1 [Example 61]
[S] COC(=O)n1c(-c2ccc(C(C)(C)C)cc2)nc2ccccc21 [Example 14-P]
*Q* Put the items in sequence by half-life at 1 μM, from largest down. // ordering of labels required in reply
*A* R, P, S, Q
(R: 23.8 min, P: 8.3 min, S: 5.5 min, Q: 3.2 min)

[A] CC(C)(C)c1ccc(-c2nc3cc(N)ccc3[nH]2)cc1 [Example 44]
[B] CC(C)(C)c1ccc(-c2nc3c(F)c(F)c(F)c(F)c3[nH]2)cc1 [Example 63]
[C] CC(C)(C)c1ccc(-c2nc3c(F)cc(F)cc3[nH]2)cc1 [Example 57]
[D] CC(C)(C)c1cccc(-c2nc3c(F)cc(F)cc3[nH]2)c1 [Example 77]
[E] CC(C)(C)c1ccc(-c2nc3c(F)c(F)c(F)cc3[nH]2)cc1 [Example 64]
*Q* Put the items in sequence by half-life at 1 μM, from largest down. // ordering of labels required in reply
*A* B, E, C, A, D

[A] [2H]c1c([2H])c([2H])c2[nH]c(-c3ccc(C(C)(C)C)cc3)nc2c1[2H] [Example 60]
[B] CC(C)(C)c1ccc(-c2nc3ccccc3n2COP(=O)(O)O)cc1 [Example 10-P]
*Q* // compare measured half-life at 1 μM, left A , right B , return larger Answer = label.
*A* B
(B: 159 min, A: 19.8 min)

---

- Tested on: Caco-2 cells
- ASSAY NOTES: Caco-2 permeability assay
- CONDITION: 10 μM, HBSS pH 7.4, 37° C., 2 h, without elacridar
PARAMETER: Caco2 A → B (nm/s)

COMPOUND | U | Caco2 A → B
CC(C)(C)c1ccc(-c2nc3c(F)c(F)ccc3[nH]2)cc1 | nm/s | 4.27

[A] CC(C)(C)c1cccc(-c2nc3ccccc3[nH]2)c1
[B] COc1ccc(-c2nc3ccccc3[nH]2)cc1
*Q* Of A and B , whose reported Caco2 A → B is numerically smaller? Answer = label.
*A* A

---

- ASSAY NOTES: Microsome stability assay, human liver microsomes
- Assay type: in vitro ADME
- CONDITION: pH 7.4, 1 μM test compound, NADPH 1 mM, 37° C., 0-40 mins, read-out: HLM t1/2
PARAMETER: half-life at 1 μM (h)

Example results:
COMPOUND | half-life at 1 μM, h
CC(C)(C)c1ccc(-c2nc3c(F)c(F)c(F)cc3[nH]2)cc1 | 1.87
CC(C)(C)c1ccc(-c2nc3cc(C(F)(F)F)ccc3[nH]2)cc1 | 1.4

[A] CC(C)(C)c1ccc(-c2nc3c(C(F)(F)F)cccc3[nH]2)cc1
[B] CC(C)(C)c1ccc(-c2nc3c(F)c(F)ccc3[nH]2)cc1
*Q* Of A and B , whose reported half-life at 1 μM is numerically smaller? Answer = label.
*A* B
(B: 0.343 h, A: 1.71 h)

---

- Tested on: Caco-2 cells
- ASSAY NOTES: Caco-2 permeability assay
- CONDITION: 10 μM, HBSS pH 7.4, 37° C., 2 h, without elacridar
PARAMETER: Caco2 A → B (nm/s)

Example results:
COMPOUND | TARGET SYSTEM | PARAMETER | RESULT NUMBER
CC(C)(C)c1ccc(-c2nc3c(C(F)(F)F)cccc3[nH]2)cc1 | Caco-2 cells | Caco2 A → B | 0.748
CC(C)(C)c1ccc(-c2cn3ccccc3n2)cc1 | Caco-2 cells | Caco2 A → B | 9.86
CC(C)(C)c1ccc(-c2nc3c(F)cc(F)cc3[nH]2)cc1 | Caco-2 cells | Caco2 A → B | 11.1

[P] Nc1ccc(-c2nc3ccccc3[nH]2)cc1 [Example 76, 2-(4-Aminophenyl)-1H-benzo[d]imidazole]
[Q] [2H]c1cc([2H])c2nc(-c3ccc(C(C)(C)C)cc3)[nH]c2c1
*Q* Of P and Q , whose reported Caco2 A → B is numerically smaller? Answer = label.
*A* Q

[1] CC(C)(C)c1ccc(-c2nc3cc(N)ccc3[nH]2)cc1
[2] CC(C)(C)c1ccc(-c2nc3cc(C(N)=O)ccc3[nH]2)cc1
*Q* Of 1 and 2 , whose reported Caco2 A → B is numerically smaller? Answer = label.
*A* 2

[I] [2H]c1c([2H])c([2H])c2[nH]c(-c3ccc(C(C)(C)C)cc3)nc2c1[2H]
[II] CC(C)(C)c1ccc(-c2nc3cc(C(F)(F)F)ccc3[nH]2)cc1
*Q* // compare measured Caco2 A → B, left I , right II , return larger Answer = label.
*A* I
(I: 15.8 nm/s, II: 0.878 nm/s)

---

- ASSAY NOTES: in vitro
- CONDITION: human, Caco-2, pH 7.4
PARAMETER: Papp A→B at 2 h, 10 μM (×10⁻⁶ cm/s)
Use ×10⁻⁶ cm/s as the unit, but write only the number.

*Q* Look up Papp A→B at 2 h, 10 μM for this molecule: CC(C)(C)c1ccc(-c2nc3ccccc3[nH]2)cc1 [Example 1]
*A* 0.659

---

- ASSAY NOTES: Microsome stability assay, human liver microsomes
- Format: in vitro ADME
- CONDITION: pH 7.4, 1 μM test compound, NADPH 1 mM, 37° C., 0-40 mins, read-out: HLM t1/2
PARAMETER: half-life at 1 μM (min)

Example results:
MOLECULE | PARAMETER | RESULT NUMBER
CC(C)(C)c1ccc(-c2nc3ccccc3n2COP(=O)(O)O)cc1 | half-life at 1 μM | 159
[2H]c1cc([2H])c2nc(-c3ccc(C(C)(C)C)cc3)[nH]c2c1 | half-life at 1 μM | 13.6
Nc1ccc(-c2nc3ccccc3[nH]2)cc1 [Example 76, 2-(4-Aminophenyl)-1H-benzo[d]imidazole] | half-life at 1 μM | 25.4

[a] CC(C)(C)c1cccc(-c2nc3c(F)cc(F)cc3[nH]2)c1
[b] [2H]c1c([2H])c([2H])c2[nH]c(-c3ccc(C(C)(C)C)cc3)nc2c1[2H]
[c] CC(C)(C)c1cccc(-c2nc3ccccc3[nH]2)c1
*Q* Put the items in order so that reported half-life at 1 μM rises from first to last. // ordering of labels required in reply
*A* c, b, a

[P] CC(C)(C)c1ccc(-c2cn3ccccc3n2)cc1
[Q] COc1ccc(-c2nc3ccccc3[nH]2)cc1
*Q* Of P and Q , whose reported half-life at 1 μM is numerically smaller? Answer = label.
*A* Q
(Q: 4.2 min, P: 11.5 min)

---

- ASSAY NOTES: Microsome stability assay, human liver microsomes
- Assay type: in vitro ADME
- CONDITION: pH 7.4, 1 μM test compound, NADPH 1 mM, 37° C., 0-40 mins, read-out: HLM t1/2
PARAMETER: half-life at 1 μM (min)

Example results:
COMPOUND | half-life at 1 μM (min)
COC(=O)n1c(-c2ccc(C(C)(C)C)cc2)nc2ccccc21 [Example 14-P] | 25.1
CC(C)(C)c1ccc(-c2nc3c(F)c(F)c(F)c(F)c3[nH]2)cc1 [Example 63] | 59.8

[1] CC(C)(C)c1ccc(-c2nc3c(F)cc(F)cc3[nH]2)cc1 [Example 57]
[2] CC(C)(C)c1ccc(-c2nc3cc(N)ccc3[nH]2)cc1 [Example 44]
*Q* // compare measured half-life at 1 μM, left 1 , right 2 , return larger Answer = label.
*A* 1

---

- Test system: Caco-2 cells
- ASSAY NOTES: Caco-2 permeability assay
- CONDITION: 10 μM, HBSS pH 7.4, 37° C., 2 h
PARAMETER: Caco2 B → A (nm/s)

COMPOUND | TARGET SYSTEM | RESULT NUMBER
CC(C)(C)c1ccc(-c2nc3c(C(F)(F)F)cccc3[nH]2)cc1 | Caco-2 cells | 1.73
CC(C)(C)c1ccc(-c2nc3cc(C(N)=O)ccc3[nH]2)cc1 | Caco-2 cells | 28.5
[2H]c1c([2H])c([2H])c2[nH]c(-c3ccc(C(C)(C)C)cc3)nc2c1[2H] | Caco-2 cells | 40.7
CC(C)(C)c1ccc(-c2nc3cc(C(F)(F)F)ccc3[nH]2)cc1 | Caco-2 cells | 1.2
CC(C)(C)c1ccc(-c2nc3c(F)cc(F)cc3[nH]2)cc1 | Caco-2 cells | 8.42

[P] CC(C)(C)c1ccc(-c2nc3c(F)c(F)c(F)cc3[nH]2)cc1
[Q] CC(C)(C)c1ccc(-c2nc3cc(N)ccc3[nH]2)cc1
[R] CC(C)(C)c1ccc(-c2nc3c(F)c(F)c(F)c(F)c3[nH]2)cc1
*Q* Put the items in order so that reported Caco2 B → A rises from first to last. // ordering of labels required in reply
*A* R, P, Q
